Target: KRAS (G12C)::SOS1 (Homo sapiens (Human), UniProt P01116, C118S/C51S/C80L/G12C)
Sequence (P01116 other isoform, or with tags, fused parts or gaps G12C/C51S/C80L/C118S): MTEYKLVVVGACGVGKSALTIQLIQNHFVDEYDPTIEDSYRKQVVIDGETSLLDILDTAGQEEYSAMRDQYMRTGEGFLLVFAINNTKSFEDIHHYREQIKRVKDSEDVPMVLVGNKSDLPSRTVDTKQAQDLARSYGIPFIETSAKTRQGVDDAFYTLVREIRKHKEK
Assay: KRAS::SOS1 AlphaScreen binding assay, KRAS G12C
reported endpoint: IC50 (nM)

a = C[C@H](Oc1cc(N2CCC(N(C)C)CC2)nc(-c2noc3c2CCC[C@@]32CCCc3sc(N)c(C#N)c32)n1)[C@@H]1CCCN1C
b = C[C@H](Oc1nc(-c2noc3c2CCC[C@@]32CCCc3sc(N)c(C#N)c32)cc(N2C[C@H](C)N[C@@H](C)C2)n1)[C@@H]1CCCN1C
c = C[C@H](Oc1cc(N2CC[C@H](N3CCCC3)C2)nc(-c2noc3c2CCC[C@@]32CCCc3sc(N)c(C#N)c32)n1)[C@@H]1CCCN1C
# input Rank the items above by IC50, largest value first. API: response body holds the labels in the requested order.
# output b, a, c
